Would you mind telling me the reported % Activation of each entry?
Target: ΔF508-CFTR (Homo sapiens, UniProt P13569, DEL508-508)
Construct: host or cells: CFBE41o-, doxycycline-inducible
Sequence (P13569 with tags, fused parts or gaps DEL508-508): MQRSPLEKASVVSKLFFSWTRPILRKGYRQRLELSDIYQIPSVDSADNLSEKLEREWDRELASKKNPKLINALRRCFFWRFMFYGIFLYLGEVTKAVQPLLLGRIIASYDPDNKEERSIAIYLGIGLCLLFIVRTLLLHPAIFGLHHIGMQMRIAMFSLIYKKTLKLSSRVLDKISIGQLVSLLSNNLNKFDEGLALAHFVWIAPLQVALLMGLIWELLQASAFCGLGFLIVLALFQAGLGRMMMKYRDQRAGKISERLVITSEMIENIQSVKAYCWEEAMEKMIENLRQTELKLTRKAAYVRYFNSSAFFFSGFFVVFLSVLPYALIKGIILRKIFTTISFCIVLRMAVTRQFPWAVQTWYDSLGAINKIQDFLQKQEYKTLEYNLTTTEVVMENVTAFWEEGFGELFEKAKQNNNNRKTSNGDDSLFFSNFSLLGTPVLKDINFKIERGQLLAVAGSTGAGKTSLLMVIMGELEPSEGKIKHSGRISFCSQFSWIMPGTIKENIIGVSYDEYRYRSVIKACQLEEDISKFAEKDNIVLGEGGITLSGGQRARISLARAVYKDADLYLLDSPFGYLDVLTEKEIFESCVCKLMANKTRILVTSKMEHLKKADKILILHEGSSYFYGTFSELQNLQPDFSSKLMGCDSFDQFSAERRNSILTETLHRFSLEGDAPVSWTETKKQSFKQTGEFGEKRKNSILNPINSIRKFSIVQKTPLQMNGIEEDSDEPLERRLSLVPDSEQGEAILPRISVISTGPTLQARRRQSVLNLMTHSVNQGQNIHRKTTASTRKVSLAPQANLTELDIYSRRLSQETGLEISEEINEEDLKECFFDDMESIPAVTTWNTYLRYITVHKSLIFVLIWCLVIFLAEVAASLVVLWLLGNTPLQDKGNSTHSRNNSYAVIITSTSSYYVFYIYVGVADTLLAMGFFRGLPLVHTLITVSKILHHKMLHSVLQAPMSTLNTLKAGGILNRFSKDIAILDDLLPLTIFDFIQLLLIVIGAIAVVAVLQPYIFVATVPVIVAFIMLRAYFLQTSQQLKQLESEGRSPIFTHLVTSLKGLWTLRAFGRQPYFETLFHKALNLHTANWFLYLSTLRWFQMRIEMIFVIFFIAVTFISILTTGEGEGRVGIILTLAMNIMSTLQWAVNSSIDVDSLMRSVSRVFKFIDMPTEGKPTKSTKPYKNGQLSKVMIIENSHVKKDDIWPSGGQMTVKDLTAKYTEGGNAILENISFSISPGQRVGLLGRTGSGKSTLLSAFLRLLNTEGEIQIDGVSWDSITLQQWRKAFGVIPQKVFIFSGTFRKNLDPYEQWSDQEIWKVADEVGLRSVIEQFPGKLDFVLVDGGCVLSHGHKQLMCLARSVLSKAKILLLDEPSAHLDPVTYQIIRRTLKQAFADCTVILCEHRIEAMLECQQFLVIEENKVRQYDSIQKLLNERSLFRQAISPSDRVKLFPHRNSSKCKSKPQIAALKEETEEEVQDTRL
Test: CFTR cell surface levels using HRP-tagged ΔF508-CFTR expressing CFBE cells, in the presence of a co-corrector
Format: cell-based
Settings: HRP-tagged ΔF508-CFTR CFBE cells, in the presence of 3 μM co-corrector
Provide only the numeric value, understood in %.

Notebook: COC(C)C1CCN(c2cc(C(=O)NS(C)(=O)=O)nc3c2c(C2CCC2)nn3-c2ccccc2)CC1 (stereo not drawn) [Compound 241] , % Activation read as 488.15

Notebook: COC1CN(S(=O)(=O)NC(=O)c2cc(N3CCC(N4CCOCC4)CC3)c3c(C4CCC4)nn(-c4ccc(F)cc4)c3n2)C1 [Compound 484] , % Activation read as 485.6

Notebook: CC(C)c1nn(-c2ccc(F)cc2)c2nc(C(=O)NS(C)(=O)=O)cc(N3CCC(N4CCOCC4)CC3)c12 [Compound 411] , % Activation read as 505

* * *

Biological target: ΔF508-CFTR (Homo sapiens, UniProt P13569, DEL508-508)
Construct: host or cells: CFBE41o-, doxycycline-inducible
Experiment: CFTR cell surface levels using HRP-tagged ΔF508-CFTR expressing CFBE cells, in the presence of a co-corrector
Type: cell-based
Settings: HRP-tagged ΔF508-CFTR CFBE cells, in the presence of 3 μM co-corrector; read-out: EC50
quantity-measured: EC50 (nM)
Provide only the numeric value, understood in nM.

Notebook: COCCS(=O)(=O)NC(=O)c1cc(-c2ccc(CN3CCOCC3)cc2)c2c(OC(C)C)nn(C3CCCCC3)c2n1 , EC50 read as 102

Notebook: CCOC(=O)N1CCC(NS(=O)(=O)NC(=O)c2cc(OCC3CCOCC3)c3c(C4CCC4)nn(-c4ccccc4)c3n2)CC1 , EC50 read as 48.3

Notebook: CC(C)c1nn(-c2ccc(F)cc2F)c2nc(C(=O)NS(C)(=O)=O)cc(-c3ccc(N4CCC(C#N)CC4)nc3)c12 , EC50 read as 381

Notebook: CN1CCN(C(=O)C2CCN(S(=O)(=O)NC(=O)c3cc(OCC4CCOCC4)c4c(C5CCC5)nn(-c5ccccc5)c4n3)CC2)CC1 , EC50 read as 101

Notebook: COCCS(=O)(=O)NC(=O)c1cc(-c2ccc(N3CCC(C#N)CC3)nc2)c2c(n1)n(-c1ccccc1)nc2[C@H]1C[C@H](C)C1 , EC50 read as 42.9

Notebook: CC1CN(c2ccc(-c3cc(C(=O)NS(C)(=O)=O)nc4c3c(C(C)C)nn4C3CCCCC3)cn2)CC(C)O1 (stereo not drawn) , EC50 read as 270

* * *

Biological target: ΔF508-CFTR (Homo sapiens, UniProt P13569, DEL508-508)
Construct: host or cells: CFBE41o-, doxycycline-inducible
Test: CFTR cell surface levels using HRP-tagged ΔF508-CFTR expressing CFBE cells, in the presence of a co-corrector
Assay type: cell-based
Settings: HRP-tagged ΔF508-CFTR CFBE cells, in the presence of 3 μM co-corrector; read-out: EC50
Excerpt: Measuring CFTR Cell Surface Levels Using HRP-Tagged ΔF508-CFTR Expressing CFBE Cells The HRP-tagged ΔF508-CFTR cell assay measures the expression of CFTR-ΔF508 at the plasma membrane. […] When HRP-tagged ΔF508-CFTR is present at the plasma membrane, the HRP enzyme activity can be measured. The amount of CFTR-ΔF508 that can be rescued to the plasma membrane is correlated with the amount of functional enzyme that can be measured. […]
Would you mind telling me the reported EC50 of each entry?

Item CN(C)S(=O)(=O)NC(=O)c1cc(C2CCC(N3CCOCC3)CC2)c2c(C3CCC3)nn(-c3ccccc3)c2n1 (stereo not drawn) was tested on ΔF508-CFTR (Homo sapiens, UniProt P13569, DEL508-508); the reported EC50 is 152 nM

Item COCC1CCN(c2cc(C(=O)NS(=O)(=O)CCC(=O)OC)nc3c2c(C2CCC2)nn3-c2ccccc2)CC1 was tested on ΔF508-CFTR (Homo sapiens, UniProt P13569, DEL508-508); the reported EC50 is 74.3 nM

Item CS(=O)(=O)NC(=O)c1cc(N2CCC(N3CCC(C#N)C3)CC2)c2c(C3CCC3)nn(-c3ccc(F)cc3)c2n1 (stereo not drawn) was tested on ΔF508-CFTR (Homo sapiens, UniProt P13569, DEL508-508); the reported EC50 is 69.9 nM
